This collection of values is drawn from patent US9751825B2.

System: prostate cancer cells (PC3) and breast cancer MDA-MB-231 cells
assay text: Tumor cell growth with kinase inhibitors, with or without TNFα (FIG. 2)
Format: cell-based
assay conditions: 48 hrs; 5 μM U0126, 10 μM 1478, 5 μM 5Z-7-oxozeanol, 5 μM HDAB001, 5 μM SB431542
experimental endpoint: tumor cell growth

COc1cc(O)c2c(c1)/C=C/C[C@H](O)[C@H](O)C(=O)/C=C\C[C@H](C)OC2=O [5Z-7-oxozeanol]	markedly inhibited
COC(=O)/C=C\C=C(\C(=O)OC)c1ccc(Cl)c(Cl)c1 [HDAB001]	markedly inhibited
NC(=O)c1ccc(-c2nc(-c3ccc4c(c3)OCO4)c(-c3ccccn3)[nH]2)cc1 [SB431542, reference compound]	resistant
COc1cc2ncnc(Nc3cccc(Cl)c3)c2cc1OC [AG1478]	resistant
